Values were extracted from PubChem BioAssay AID248.

# Test system: L1210 leukemia ip in BDF1 mice, survival T/C
# test.protocol: NCI In Vivo Anticancer Drug Screen. Data for tumor model L1210 Leukemia (intraperitoneal) in B6D2F1 (BDF1) mice
# measurement.setup: endpoint: mean survival time; dose: 200.0 mg/kg/injection; schedule: Q04DX003 (ip); vehicle: saline; higher = longer survival
Inconclusive results and toxic doses are left out.
assay.readout: T/C

Completed entries (count: 3):
COC(CN)C(Cl)(Cl)Cl (centres undefined) | 107 % of control
Nc1nc2c(c(-c3ccccc3)n1)CN(CCC(=O)O)C2=O | 100 % of control
CN(C)/C=N/NC(=O)c1ccncc1 | 100 % of control

For L1210 leukemia ip in BDF1 mice, survival T/C, give the measured T/C of the entry OC1(C#CC#CC2(O)CCCCC2)CCCCC1
98 % of control

For L1210 leukemia ip in BDF1 mice, survival T/C, give the measured T/C of the entry Cc1ccc(C(=O)CCN2CCOCC2)cc1C
91 % of control

For L1210 leukemia ip in BDF1 mice, survival T/C, give the measured T/C of the entry CSC(N)=Nc1c(C)cccc1C
101 % of control

For L1210 leukemia ip in BDF1 mice, survival T/C, give the measured T/C of the entry CCOC(=O)C1CC1Cc1ccccc1 (centres undefined)
105 % of control

For L1210 leukemia ip in BDF1 mice, survival T/C, give the measured T/C of the entry COc1ccc(CNCCO)cc1
98 % of control

* * *

# System: L1210 leukemia ip in BDF1 mice, survival T/C
# test.protocol: NCI In Vivo Anticancer Drug Screen. Data for tumor model L1210 Leukemia (intraperitoneal) in B6D2F1 (BDF1) mice
# measurement.setup: endpoint: mean survival time; dose: 200.0 mg/kg/injection; schedule: Q01DX009 (ip); vehicle: saline with Tween-80; higher = longer survival
# Procedure: The antitumor activity of compounds was measured in mice bearing transplantable tumors. Survival or tumor size were measured and the results are expressed as the measurement made in the treated group (T) divided by the measurement made in the vehicle treated control group (C). The tumor model used in this assay is L1210 Leukemia (intraperitoneal) in B6D2F1 (BDF1) mice
Inconclusive results and toxic doses are left out.
assay.readout: T/C

Completed entries (count: 8):
O=c1[nH]c(Cc2ccccc2)c(Br)c(=O)[nH]1 | 92 % of control
CCOC(=O)c1ccc(N(CC(=O)CN=[N+]=[N-])S(=O)(=O)c2ccc(C)cc2)cc1 | 96 % of control
O=C1NC(=O)C(c2ccc(C(F)(F)F)cc2)(c2ccc(C(F)(F)F)cc2)N1 | 90 % of control
O=[N+]([O-])c1ccc(OCc2ccccc2)nc1 | 97 % of control
CCCCN(CCCC)C(=O)C1C=C2c3cccc4[nH]cc(c34)CC2N(C#N)C1 (configuration not stated) | 87 % of control
COc1ccc(C2=CCCCC2)cc1 | 91 % of control
Cc1ccc(N2C(=O)CC(Sc3ccccc3N)C2=O)cc1Cl (configuration not stated) | 96 % of control
O=C(O)C(Br)C(Br)C(=O)Nc1ccc(Cl)c(Cl)c1 (configuration not stated) | 104 % of control

Give the reported T/C for this compound. COc1ccc(NC(=O)C2C3C=CC(C3)C2C(=O)O)cc1 (configuration not stated)
100 % of control

Give the reported T/C for this compound. COc1ccc(Cl)cc1NC(=O)Oc1ccccc1C(C)C
98 % of control

Give the reported T/C for this compound. CN(C)O
105 % of control

Give the reported T/C for this compound. ON=C(c1ccc(Cl)cc1)c1ccc(Cl)cc1
93 % of control

* * *

Measured T/C of individual entries
# System: L1210 leukemia ip in BDF1 mice, survival T/C
# test.protocol: NCI In Vivo Anticancer Drug Screen. Data for tumor model L1210 Leukemia (intraperitoneal) in B6D2F1 (BDF1) mice
# measurement.setup: endpoint: mean survival time; dose: 200.0 mg/kg/injection; schedule: Q01DX001 (ip); vehicle: saline; higher = longer survival
Toxic doses and inconclusive results are not listed.

Completed entries (count: 10):
O=c1[nH][nH]c(=S)c(=O)[nH]1 | 98 % of control
Cc1cc(C)c2c(C#N)cn(-c3ccc([N+](=O)[O-])cc3)c2n1 | 102 % of control
NC(=O)C(=O)NO | 106 % of control
CN(C)/N=C/c1nccc2ccccc12 | 93 % of control
COC1CCC(OC)(C(=O)NN)O1 (stereo not drawn) | 95 % of control
COc1cc2c(cc1OCc1ccccc1)C(c1cc(OC)c(OC)c(OC)c1)=C1C(=O)OCC1C2 (stereo not drawn) | 97 % of control
CC(C)N(N=O)C(C)C | 102 % of control
O=C(Cc1ccccc1)NCc1ccccc1 | 104 % of control
CC(=O)NCC(N)=S | 102 % of control
NNC(=O)CC(=O)NN | 97 % of control

Give the reported T/C for this compound. Cn1c(=O)c2c(nc(CCCCCCCc3nc4c(c(=O)n(C)c(=O)n4C)n3C)n2C)n(C)c1=O
98 % of control

Give the reported T/C for this compound. CN(C)CCCN1CCC2(CCCC(C(F)(F)F)C2)CC1 (stereo not drawn)
104 % of control

Give the reported T/C for this compound. S=c1[nH]n(-c2ccccc2)c(=S)s1
105 % of control

* * *

# Test system: L1210 leukemia ip in BDF1 mice, survival T/C
# test.protocol: NCI In Vivo Anticancer Drug Screen. Data for tumor model L1210 Leukemia (intraperitoneal) in B6D2F1 (BDF1) mice
# measurement.setup: endpoint: mean survival time; dose: 10.0 mg/kg/injection; schedule: Q01DX001 (ip); vehicle: saline; higher = longer survival
Toxic doses and inconclusive results are not listed.
Measured T/C of individual entries

C[N+](C)(C)C1(c2ccc(F)cc2)CCCCC1 | 105 % of control
C[N+]1(CCl)CCOCC1 | 102 % of control
CCCCCCCCCCCCCCC1=NCCN1 | 94 % of control
CCOP(=O)(Oc1ccc([N+](=O)[O-])cc1)c1cccc(Cl)c1 (stereo not drawn) | 111 % of control
COc1ccc2nc3ccccc3c(N)c2c1 | 100 % of control

Give the reported T/C for this compound. CCC1=NNC(=O)C1(Br)Br
100 % of control

Give the reported T/C for this compound. COC1CC(O[C@H]2CC[C@@]3(C)[C@H](CC[C@@H]4[C@@H]3CC[C@]3(C)[C@@H](C5=CC(=O)OC5)[C@@H](OC(C)=O)C[C@]43O)C2)OC(C)C1O (stereo partly drawn)
108 % of control

Give the reported T/C for this compound. C/C(=N/N)c1ccc(Br)cc1
97 % of control

* * *

Measured T/C of individual entries
# Tested on: L1210 leukemia ip in BDF1 mice, survival T/C
# test.protocol: NCI In Vivo Anticancer Drug Screen. Data for tumor model L1210 Leukemia (intraperitoneal) in B6D2F1 (BDF1) mice
# measurement.setup: endpoint: mean survival time; dose: 200.0 mg/kg/injection; schedule: Q01DX001 (ip); vehicle: saline; higher = longer survival
Inconclusive results and toxic doses are left out.

Completed entries (count: 4):
CCCCOc1c(Cl)c(Cl)c(O)c(Cl)c1Cl | 88 % of control
COc1ccccc1CCCO | 100 % of control
COC(=O)C12CCC1(Cl)CC2 (configuration not stated) | 95 % of control
Cc1ccc(O)c(CCCO)c1 | 94 % of control

Give the reported T/C for this molecule. CC1([N+](=O)[O-])COP(=O)(O)OC1 (configuration not stated)
90 % of control

Give the reported T/C for this molecule. CN(C)S(=O)(=O)c1ccc(NC(=O)OC(c2ccccc2)(c2ccccc2)c2ccccc2)cc1
92 % of control

Give the reported T/C for this molecule. CC(=O)Nc1c(NN=C(C)C)[nH]c(=O)[nH]c1=O
102 % of control

* * *

# Test system: L1210 leukemia ip in BDF1 mice, survival T/C
# test.protocol: NCI In Vivo Anticancer Drug Screen. Data for tumor model L1210 Leukemia (intraperitoneal) in B6D2F1 (BDF1) mice
# measurement.setup: endpoint: mean survival time; dose: 100.0 mg/kg/injection; schedule: Q01DX009 (ip); vehicle: saline with Tween-80; higher = longer survival
Inconclusive results and toxic doses are left out.
Measured T/C of individual entries

Completed entries (count: 6):
O=C(O)c1cc(N=Nc2ccccc2)ccc1O | 94 % of control
COc1cc2c(cc1O)C(OC)(OC)CCCC2 | 96 % of control
COc1cc(/C=N\N=C\c2cc(OC)c(OC)c(OC)c2)cc(OC)c1OC | 96 % of control
Cc1cccc(C(C)(C)CO)c1 | 96 % of control
O=C(Oc1c(Cl)cc(Cl)cc1Cl)c1ccccc1 | 90 % of control
CC(C)=CCc1ccc(Cl)cc1 | 105 % of control

Give the reported T/C for this molecule. CCCCCCN(/N=C\C(=O)O)C(N)=O
88 % of control

Give the reported T/C for this molecule. CSC(=N)c1cccc(OCCCc2ccccc2)c1
101 % of control

Give the reported T/C for this molecule. CCc1c(C(OC)OC)[nH]c(=S)[nH]c1=O
94 % of control

Give the reported T/C for this molecule. CC(=O)NC(CCSCc1c2ccccc2c(C)c2ccccc12)C(=O)O (stereo not drawn)
98 % of control

Give the reported T/C for this molecule. CCCCNC(=O)Nc1ccc(N(CC)CC)cc1
101 % of control

Give the reported T/C for this molecule. COCC=C(C)C
92 % of control

Give the reported T/C for this molecule. CN(Cc1ccccc1)C(=O)NC1CCCCC1
102 % of control
